Test system: ICR mice
Assay: Xylene-induced mouse ear swelling test (Effect Example 4)
Type: in vivo
Design: key: Symbol “—” indicates that the data obtained at this dose was not significantly different from the vehicle control group
Details: 1 mg/kg intragastric, 50 uL xylene two hours after administration
QUANTITY_KIND: Inhibition rate (%)

Write down Inhibition rate (%) measured for item Clc1ccc(N2CC[N+]3(CCCC3)CC2)cc1.[Br-]
—

Assign Inhibition rate (%) to the following record: Br.N#Cc1ccc(N2CC[N+]3(CCCC3)CC2)cc1
—

Give recorded Inhibition rate (%). Br.Fc1ccc(N2CC[N+]3(CCCC3)CC2)cc1
—

Query Inhibition rate (%) for Fc1ccccc1N1CC[N+]2(CCCC2)CC1.[Br-]
—
